Ref: patent US7947696B2

compounds and their reported IC50
system_name: Recombinant human HSP90α (Homo sapiens, UniProt P07900)
experiment: radioligand filter binding test, competition with [3H]17AAG for HSP90
test_context: [3H]17AAG 0.08 μM, HSP90 1.5 μg/assay, 22° C., 30 min, pH 7.0
Counter-ions that a name gives are not always drawn.
Response body: numeric value in nM, unit text excluded.

In the examples that follow, each entry is paired with its recorded IC50.
- compound: "COc1ccc(-c2nc(N)nc3ccc(Cl)cc23)cc1OCCCC(=O)O [Compound A111, sodium salt]"
  measurement_units: "nM"
  IC50: 580
- compound: "COC(=O)c1cccc(COc2cc(-c3nc(N)nc4ccc(Cl)cc34)ccc2OC)c1"
  measurement_units: "nM"
  IC50: 950
- compound: "COc1ccc(-c2nc(N)nc3ccc(Cl)cc23)cc1OCc1cccc(C(=O)O)c1 [Compound A112, sodium salt]"
  measurement_units: "nM"
  IC50: 470

**Query** Entry COc1ccc(-c2nc(N)nc3ccc(Cl)cc23)cc1OC has what IC50?
**Result** 550

**Query** Same question for COc1ccc(-c2nc(N)nc3ccc(Cl)cc23)cc1OCc1ccc(-c2nnn[nH]2)cc1 please.
**Result** 540

**Query** Same question for COC(=O)c1ccc(COc2cc(-c3nc(N)nc4ccc(Cl)cc34)ccc2OC)cc1 please.
**Result** 800

**Query** Same question for COc1ccc(-c2nc(N)nc3ccc(Cl)cc23)cc1OCc1ccc(C(=O)O)cc1 [Compound A113, sodium salt] please.
**Result** 370
